FYI, the data here is from paper PMC6410202.

Assay: in vitro
Details: human, Caco-2, Papp A-B, control
quantityName: Papp A→B at 30 min, 10 μM (×10⁻⁶ cm/s)

{"smilesNotation": "CN/C(=N/CCSCc1nc[nH]c1C)NC#N", "val": 0.9}
